Some compounds, each annotated with its measured melting point.
Quantity: melting point

| Compound | Result |
| --- | --- |
| N#Cc1ccc(-c2onc3ccc(Cl)cc23)cc1 [Compound 7b] | 236 to 237 °C |
| Ic1ccc2noc(-c3ccccc3)c2c1 [Compound 3h, 5-Iodo-3-phenylbenzo[c]isoxazole] | 112 to 115 °C |
| Clc1ccc(-c2onc3ccc(Cl)cc23)cc1 [Compound 3n] | 229 to 232 °C |
| Clc1ccc(-c2onc3ccc(I)cc23)cc1 [Compound 3b] | 185 to 187 °C |
| N#Cc1ccc(-c2onc3c(Cl)cc(Cl)cc23)cc1 [Compound 7a] | 240 to 241 °C |

----------
Some compounds, each annotated with its measured SI (selectivity index).
# Target Under Test: recombinant human MAO-B (Homo sapiens, UniProt P27338)
# Construct: purchased Sigma-Aldrich; host or cells: insect cells (microsomes)
# Sequence (P27338 whole entry): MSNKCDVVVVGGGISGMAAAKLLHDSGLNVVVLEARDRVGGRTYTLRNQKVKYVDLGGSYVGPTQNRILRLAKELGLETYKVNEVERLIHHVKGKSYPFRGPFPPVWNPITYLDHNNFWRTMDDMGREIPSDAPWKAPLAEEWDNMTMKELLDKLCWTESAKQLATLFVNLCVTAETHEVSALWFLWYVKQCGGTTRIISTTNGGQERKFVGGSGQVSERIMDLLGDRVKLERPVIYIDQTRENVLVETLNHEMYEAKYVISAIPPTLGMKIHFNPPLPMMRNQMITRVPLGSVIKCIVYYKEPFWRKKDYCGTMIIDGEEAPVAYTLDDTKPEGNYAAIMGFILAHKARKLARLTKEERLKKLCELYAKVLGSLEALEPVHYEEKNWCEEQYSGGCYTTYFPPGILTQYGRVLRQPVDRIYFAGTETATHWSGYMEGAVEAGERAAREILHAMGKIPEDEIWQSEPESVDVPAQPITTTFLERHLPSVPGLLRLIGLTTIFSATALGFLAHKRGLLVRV
# Experiment Summary: MAO-B inhibition, IC50 determination with kynuramine as substrate (fluorescence of 4-hydroxyquinoline)
# Format: biochemical
# Condition Parameters: SI = IC50(MAO-A)/IC50(MAO-B)
Quantity: SI (selectivity index)

| Compound | Quantity | Readout Number |
| --- | --- | --- |
| COc1ccc(-c2onc3ccc(I)cc23)cc1 | SI (selectivity index) | 6.4 |
| Ic1ccc2noc(-c3ccccc3)c2c1 [Compound 3h, 5-Iodo-3-phenylbenzo[c]isoxazole] | SI (selectivity index) | 1.1 |
| Clc1ccc(-c2onc3ccc(Cl)cc23)cc1 | SI (selectivity index) | 39 |
| C(#Cc1ccc2noc(-c3ccccc3)c2c1)c1ccccc1 | SI (selectivity index) | 9.0 |
| Cc1nc(-c2cc3noc(-c4ccccc4)c3cc2Cl)no1 | SI (selectivity index) | 2.5 |
| Cc1ccc(-c2onc3ccc(I)cc23)cc1 [Compound 3i, 5-Iodo-3-(p-tolyl)benzo[c]isoxazole] | SI (selectivity index) | 13 |
| N#Cc1ccc(-c2onc3ccc(Cl)cc23)cc1 | SI (selectivity index) | 622 |
| c1ccc(-c2onc3ccc(Oc4ccc5noc(-c6ccccc6)c5c4)cc23)cc1 [Compound 5, 5,5'-Oxybis(3-phenylbenzo[c]isoxazole)] | SI (selectivity index) | 0.33 |
